Readings of melting point for the listed compounds

In the examples that follow, each entry is paired with its recorded melting point.
- Compound: "OB1OCc2ccc(Sc3ccc(F)cc3)cc21"
  melting point: "135 to 138 °C"
- Compound: "OB1OCc2cc(F)c(NCc3ccccc3)cc21"
  melting point: "159 to 164 °C"
- Compound: "COc1ccc2c(ccn2-c2ccc3c(c2)B(O)OC3)c1"
  melting point: "120 to 124 °C"
- Compound: "O=[N+]([O-])c1cc2c(cc1F)COB2O"
  melting point: "162 to 167 °C"
- Compound: "Cc1ccc(Sc2ccc3c(c2)B(O)OC3)cc1"
  melting point: "139 to 144 °C"
- Compound: "OB1OCc2ccc(Oc3ccccc3)cc21"
  melting point: "95 to 99 °C"
- Compound: "N#Cc1ccc(Oc2cccc(B(O)O)c2)cc1"
  melting point: "153 to 162 °C"
- Compound: "OB1OCc2cccc(F)c21 [C86, 7-fluorobenzo[c][1,2]oxaborol-1(3H)-ol]"
  melting point: "120 to 124 °C"
- Compound: "OB1OCc2ccc(-n3cc(Sc4ccccc4)c4cc(Cl)ccc43)cc21"
  melting point: "145 to 151 °C"
- Compound: "CC(=O)Nc1ccc2c(c1)B(O)OC2"
  melting point: "176 to 185 °C"

Identify melting point associated with the compound O=S(=O)(Nc1ccc2c(c1)B(O)OC2)c1ccccc1 175 to 184 °C

Identify melting point associated with the compound OB1OCc2ccc(N3CCN(c4ccccc4)CC3)cc21 159 to 161 °C
